biological target: Aryl hydrocarbon receptor (Homo sapiens); test: ATG_Ahr_CIS: Attagene CIS-FACTORIAL HepG2 Assay for human Aryl Hydrocarbon Receptor (Ahr) (AID 2282930); conditions: HepG2 AhR cis-factorial reporter transcription; actives raise or lower the signal
Activity calls are given as the source filed them. Rule for the calls: active = hit-call score of the fitted dose curve at least 0.9, where 1 is the maximum; inactive = score below 0.9.
Select the correct class. Options are class 1 for active, class 0 for inactive and nothing else.

# example entries with known answers
| compound | cat |
| --- | --- |
| CCc1ccc(C(c2ccc(CC)cc2)C(Cl)Cl)cc1 | class 0 |
| CCC(=O)OCCc1ccccc1 | class 0 |
| CO[Si](OC)(c1ccccc1)c1ccccc1 | class 0 |
| CCCCCC=O | class 0 |
| C=CC(=O)OCC(F)(F)C(F)(F)C(F)(F)C(F)(F)COC(=O)C=C | class 0 |
| O=C(O)C(F)(F)C(F)(F)F | class 0 |
| CCCCC(CC)COP(=O)(O)OCC(CC)CCCC (stereo not given) | class 0 |
| OCC(F)(F)C(F)(F)C(F)(F)F | class 0 |

Lab note: next compound to report on.
### Prompt Answer briefly: the call reported for `CCN(CC)c1ccc2c(C)cc(=O)oc2c1` in this assay.
### Response class 0

----------
read-out: Vascular cell adhesion molecule 1 (VCAM1), VCAM1 (gene 7412); assay: BSK_hDFCGF_VCAM1: BioMAP Diversity Plus: hDFCGF Assay for Vascular cell adhesion molecule 1 (VCAM1) Biomarker Activity (AID 2283065); details: primary human foreskin fibroblasts; actives raise or lower the signal
Calls of active or inactive are those of the source. Rule for the calls: active = hit-call score of the fitted dose curve at least 0.9, where 1 is the maximum; inactive = score below 0.9.
Select the correct class. Options are active, inactive and nothing else.

| compound | cat |
| --- | --- |
| C=C(C)C(=O)OCCC(F)(F)C(F)(F)C(F)(F)C(F)(F)C(F)(C(F)(F)F)C(F)(F)F | inactive |
| O=P(O)(O)OCCC(F)(F)C(F)(F)C(F)(F)C(F)(F)C(F)(F)C(F)(F)F | inactive |
| OCC(F)(F)C(F)(F)C(F)(F)F | inactive |
| CCCCOCCOCCOC(=O)CCCCC(=O)OCCOCCOCCCC | inactive |

### Prompt Answer briefly: the call reported for `FC(F)(F)C(F)(F)C(F)(F)CI` in this assay.
### Response inactive

### Prompt Answer briefly: the call reported for CCCCCCC(C)OC(=O)CCCCC(=O)OC(C)CCCCCC (centres undefined) in this assay.
### Response inactive

### Prompt Answer briefly: the call reported for `CCN(CC)c1ccc2c(C)cc(=O)oc2c1` in this assay.
### Response active

### Prompt Answer briefly: the call reported for `C#C[C@]1(O)CC[C@H]2[C@@H]3CCc4cc(OC)ccc4[C@H]3CC[C@@]21C` in this assay.
### Response inactive

### Prompt Answer briefly: the call reported for `Nc1ccc([N+](=O)[O-])cc1O` in this assay.
### Response inactive

----------
read-out: Vascular cell adhesion molecule 1 (VCAM1), VCAM1 (gene 7412); assay: BSK_MyoF_VCAM1: BioMAP Diversity Plus: MyoF Assay for Vascular cell adhesion molecule 1 (VCAM1) Biomarker Activity (AID 2284231); conditions: primary human lung fibroblasts
Calls of active or inactive are those of the source. Rule for the calls: active = hit-call score of the fitted dose curve at least 0.9, where 1 is the maximum; inactive = score below 0.9.
Select the correct class. Options are true (1) (active), false (0) (inactive) and nothing else.

# example entries with known answers
| smilesString | cat |
| --- | --- |
| O=S(=O)(O)C(F)(F)C(F)(F)C(F)(F)C(F)(F)C(F)(F)C(F)(F)C(F)(F)F | false (0) |
| CC(=O)Nc1ccc(N=Nc2cc(C)ccc2O)cc1 | true (1) |

### Prompt Answer briefly: the call reported for `CCc1c(Br)c(Br)c(Br)c(Br)c1Br` in this assay.
### Response true (1)
